- Measurement description: qHTS assay to test for compound auto fluorescence at 535 nm (green) in HepG2 cell free culture (AID 720686)
- Measurement setup: Cell-free medium, green autofluorescence 485/535 nm; series mostly up to 91.3 µM
Active and inactive are the calls of the source. Calls come from the whole dose curve; as a rule, active = well fitted curve in the direction sought with a large enough effect in the repeat runs; inconclusive = weak or mixed curves; inactive = flat fitted curve, though single readings scatter.
Reported endpoint: outcome

Compound: CCCN(CCC)S(=O)(=O)c1ccc(C(=O)O)cc1
Reported endpoint: outcome
Experimental value: inactive
--
Compound: Nc1ccn([C@H]2CC[C@@H](CO)O2)c(=O)n1
Reported endpoint: outcome
Experimental value: inactive
--
Compound: COc1ccc2[nH]cc(CCNC(C)=O)c2c1
Reported endpoint: outcome
Experimental value: inactive
--
Compound: Oc1ccc(/C=C/c2cc(O)cc(O)c2)cc1
Reported endpoint: outcome
Experimental value: inactive
--
Compound: Cc1ccccc1C(OCCN(C)C)c1ccccc1 (stereo not drawn)
Reported endpoint: outcome
Experimental value: inactive
--
Compound: NS(=O)(=O)c1cc(C(=O)O)c(NCc2ccco2)cc1Cl
Reported endpoint: outcome
Experimental value: inactive
--
Compound: NC(N)=O
Reported endpoint: outcome
Experimental value: inactive
--
Compound: O=S(=O)(O)c1ccc2cc(O)ccc2c1
Reported endpoint: outcome
Experimental value: inactive
--
Compound: NNC(=O)c1ccncc1
Reported endpoint: outcome
Experimental value: inactive
--
Compound: O=C1CN(/N=C/c2ccc([N+](=O)[O-])o2)C(=O)N1
Reported endpoint: outcome
Experimental value: inactive
--
Compound: Cc1cn([C@H]2C[C@H](N=[N+]=[N-])[C@@H](CO)O2)c(=O)[nH]c1=O
Reported endpoint: outcome
Experimental value: inactive
--
Compound: Cn1c(=O)c2[nH]cnc2n(C)c1=O
Reported endpoint: outcome
Experimental value: inactive
--
Compound: O=C1NC(=O)c2ccccc21
Reported endpoint: outcome
Experimental value: inactive

* * *

- Measurement description: qHTS assay to identify small molecule antagonists of the farnesoid-X-receptor (FXR) signaling pathway - cell viability counter screen (AID 743221); note: nearly all actives have a fitted effect of over 50% in size
- Measurement setup: FXR-bla HEK293T viability, CellTiter-Glo luminescence, 16 h; series mostly up to 62.6 µM
Records with an inconclusive call do not appear. The source made the active and inactive calls. The call rests on the fitted dose curve; in most records, active means well fitted cell-killing curve with a large enough effect in the repeat runs (not every such curve was filed as active); inconclusive means weak or mixed curves, or effect the other way; inactive means no such curve, though single readings can be large or run the other way.
Reported endpoint: outcome

Compound: N=C(N)c1ccc(OCCCCCOc2ccc(C(=N)N)cc2)cc1
Reported endpoint: outcome
Experimental value: inactive

Compound: CNC[C@H](O)c1cccc(O)c1
Reported endpoint: outcome
Experimental value: inactive

Compound: O=C(O)CCC(=O)O
Reported endpoint: outcome
Experimental value: inactive

Compound: Cc1cc(=O)n(-c2ccccc2)n1C
Reported endpoint: outcome
Experimental value: inactive

Compound: OC(Cn1cncn1)(Cn1cncn1)c1ccc(F)cc1F
Reported endpoint: outcome
Experimental value: inactive

Compound: O=C(O)c1cccnc1
Reported endpoint: outcome
Experimental value: inactive

Compound: CC(=O)OCC(COC(C)=O)OC(C)=O
Reported endpoint: outcome
Experimental value: inactive

Compound: O=C(O)CS
Reported endpoint: outcome
Experimental value: inactive

Compound: CC(C)(Oc1ccc(C2CC2(Cl)Cl)cc1)C(=O)O (stereo not given)
Reported endpoint: outcome
Experimental value: inactive

Compound: O=S(=O)(O)NC1CCCCC1
Reported endpoint: outcome
Experimental value: inactive

Compound: CC(=O)NS(=O)(=O)c1ccc(N)cc1
Reported endpoint: outcome
Experimental value: inactive

Compound: CC(O)CN(CCN(CC(C)O)CC(C)O)CC(C)O (stereo not given)
Reported endpoint: outcome
Experimental value: inactive

Compound: CCOc1ccc(NC(=O)CC(C)O)cc1 (stereo not given)
Reported endpoint: outcome
Experimental value: inactive

Compound: NS(=O)(=O)c1cc(C(=O)O)c(NCc2ccco2)cc1Cl
Reported endpoint: outcome
Experimental value: inactive

Compound: CC(C)[C@@H]1CC[C@@H](C)C[C@H]1O
Reported endpoint: outcome
Experimental value: inactive

Compound: O=C1NC(=O)c2ccccc21
Reported endpoint: outcome
Experimental value: inactive

Compound: O=C1CN(/N=C/c2ccc([N+](=O)[O-])o2)C(=O)N1
Reported endpoint: outcome
Experimental value: inactive

Compound: Cc1ccc(C)c(OCCCC(C)(C)C(=O)O)c1
Reported endpoint: outcome
Experimental value: inactive

Compound: O=C(C1CCCCC1)N1CC(=O)N2CCc3ccccc3C2C1 (stereo not given)
Reported endpoint: outcome
Experimental value: inactive

Compound: NC(N)=O
Reported endpoint: outcome
Experimental value: inactive

Compound: NC(=O)c1ccccc1O
Reported endpoint: outcome
Experimental value: inactive

Compound: Cc1cn([C@H]2C[C@H](N=[N+]=[N-])[C@@H](CO)O2)c(=O)[nH]c1=O
Reported endpoint: outcome
Experimental value: inactive

Compound: Oc1ccc(/C=C/c2cc(O)cc(O)c2)cc1
Reported endpoint: outcome
Experimental value: inactive

Compound: c1ccc2[nH]ccc2c1
Reported endpoint: outcome
Experimental value: inactive

Compound: O=C(O)c1cc(N=Nc2ccc(S(=O)(=O)Nc3ccccn3)cc2)ccc1O
Reported endpoint: outcome
Experimental value: inactive

Compound: Nc1ccc(C(=O)O)cc1
Reported endpoint: outcome
Experimental value: inactive

Compound: NC(=O)NC1NC(=O)NC1=O (stereo not given)
Reported endpoint: outcome
Experimental value: inactive

Compound: OCCc1ccccc1
Reported endpoint: outcome
Experimental value: inactive

Compound: O=c1cc[nH]c(=S)[nH]1
Reported endpoint: outcome
Experimental value: inactive

Compound: C1N2CN3CN1CN(C2)C3
Reported endpoint: outcome
Experimental value: inactive
